Documented CC50 across a set of compounds
# Tested on: Caco-2 cells
# test.protocol: Cytotoxicity, XTT assay, uninfected Caco-2 cells
# Format: cell-based, human
# measurement.parameters: uninfected Caco-2, XTT assay, 72 h; read-out: CC50, cell viability
Form entry: value (µM) — number only.

- compound: "COc1ccccc1NC(=O)c1cccc(NC(=O)CCl)c1 [Compound 6]"
  outcome.measure: "CC50"
  unit.symbol: "µM"
  recorded.number: 2.82

Turning now to a further record.
Summary for this compound, CCCCCNC(=O)c1cccc(NC(=O)CCl)c1 [Compound 10] : CC50 is 6.17

----------
# test.protocol: Cytotoxicity, XTT assay, uninfected NHBE cells
# Format: cell-based
# measurement.parameters: human, read-out: CC50, cell viability
outcome.measure: CC50 at 48 h (µM)
Form entry: value (µM) — number only.

Summary for this compound, `COc1cccc(NC(=O)c2cccc(NC(=O)CCl)c2)c1` : CC50 at 48 h is 3.75

----------
# test.protocol: Cytotoxicity, XTT assay, uninfected Caco-2 cells
# Assay type: cell-based, human
# measurement.parameters: human, uninfected Caco-2 cells, uninfected Caco-2, XTT assay, read-out: CC50, cell viability
outcome.measure: CC50 at 72 h (nM)
Form entry: value (nM) — number only.

Summary for this compound, COc1cccc(NC(=O)c2cccc(NC(=O)CCl)c2)c1 [Compound 1] : CC50 at 72 h is 2420

Data provenance is paper PMC12153265.
